# Test system: Enterococcus sp.
# protocol-notes: In vitro antibacterial evaluation: minimum inhibitory concentration (MIC), broth dilution method
# Format: cell-based
# measurement-parameters: strain ATCC 29212
Listing of recorded MIC Enterococcus faecalis (ATCC 29212) by entry.

compound: CCCc1ccc(C2OCC3OC(OC4C(CO)OC(Oc5ccc(CC6NC(=O)C(C(C)c7ccccc7)NC(=O)CNC(=O)C(CO)NC(=O)C(C(O)C7CNC(=N)N7C7OC(CO)C(O)C(O)C7O)NC(=O)C(C(O)C7CNC(=N)N7)NC6=O)cc5)C(O)C4O)C(O)C(O)C3O2)cc1 (stereo not shown)
unit-spec: mg/L
inequality-symbol: <
MIC Enterococcus faecalis (ATCC 29212): 0.5

compound: CC(c1ccccc1)C1NC(=O)CNC(=O)C(CO)NC(=O)C(C(O)C2CN(Cc3ccc(C(C)(C)C)cc3)C(=N)N2C2OC(CO)C(O)C(O)C2O)NC(=O)C(C(O)C2CNC(=N)N2)NC(=O)C(Cc2ccc(OC3OC(CO)C(OC4OC5COC6(OC5C(O)C4O)C4CC5CC(C4)CC6C5)C(O)C3O)cc2)NC1=O (stereo not shown)
unit-spec: mg/L
inequality-symbol: =
MIC Enterococcus faecalis (ATCC 29212): 16

compound: CC(c1ccccc1)C1NC(=O)CNC(=O)C(CO)NC(=O)C(C(O)C2CNC(=N)N2C2OC(CO)C(O)C(O)C2O)NC(=O)C(C(O)C2CNC(=N)N2)NC(=O)C(Cc2ccc(OC3OC(COC(=O)Cc4ccccc4)C(OC4OC(CO)C(O)C(O)C4O)C(O)C3O)cc2)NC1=O (stereo not shown) [Example 98b]
unit-spec: mg/L
inequality-symbol: =
MIC Enterococcus faecalis (ATCC 29212): 64

compound: Cc1cc(C2OCC3OC(OC4C(CO)OC(Oc5ccc(CC6NC(=O)C(C(C)c7ccccc7)NC(=O)CNC(=O)C(CO)NC(=O)C(C(O)C7CNC(=N)N7C7OC(CO)C(O)C(O)C7O)NC(=O)C(C(O)C7CNC(=N)N7)NC6=O)cc5)C(O)C4O)C(O)C(O)C3O2)ccc1[N+](=O)[O-] (stereo not shown)
unit-spec: mg/L
inequality-symbol: =
MIC Enterococcus faecalis (ATCC 29212): 32

compound: CC(c1ccccc1)C1NC(=O)CNC(=O)C(CO)NC(=O)C(C(O)C2CNC(=N)N2C2OC(CO)C(O)C(O)C2O)NC(=O)C(C(O)C2CNC(=N)N2)NC(=O)C(Cc2ccc(OC3OC(CO)C(OC4OC(COC(=O)Cc5ccccc5)C(O)C(O)C4O)C(O)C3O)cc2)NC1=O (stereo not shown) [Example 98c]
unit-spec: mg/L
inequality-symbol: =
MIC Enterococcus faecalis (ATCC 29212): 16

compound: CC(C)=CCCC(C)=CCOc1ccc(C2OCC3OC(OC4C(CO)OC(Oc5ccc(CC6NC(=O)C(C(C)c7ccccc7)NC(=O)CNC(=O)C(CO)NC(=O)C(C(O)C7CNC(=N)N7C7OC(CO)C(O)C(O)C7O)NC(=O)C(C(O)C7CNC(=N)N7)NC6=O)cc5)C(O)C4O)C(O)C(O)C3O2)cc1 (stereo not shown)
unit-spec: mg/L
inequality-symbol: =
MIC Enterococcus faecalis (ATCC 29212): 8

* * *

# Test system: Enterococcus sp.
# protocol-notes: In vitro antibacterial evaluation: minimum inhibitory concentration (MIC), broth dilution method
# Assay type: cell-based
# measurement-parameters: Enterococcus avium (GC 4558); 18 hours at 35° C.
reported-endpoint: MIC Enterococcus avium (GC 4558) (µg/mL)

molecule: CC(c1ccccc1)C1NC(=O)CNC(=O)C(CO)NC(=O)C(CC2CNC(=N)N2C2OC(CO)C(O)C(O)C2O)NC(=O)C(CC2CNC(=N)N2)NC(=O)C(Cc2ccc(OC3OC(CO)C(OC4OC(COCc5ccc(OCc6ccccc6)cc5)C(O)C(O)C4O)C(O)C3O)cc2)NC1=O (stereo not shown) [Example 246]
reported-endpoint: MIC Enterococcus avium (GC 4558)
endpoint-result: 8
//
molecule: N=C1NCC(C(O)C2NC(=O)C(CC3CCC(OC4OC(CO)C(OC5OC6COC7(OC6C(O)C5O)C5CC6CC(C5)CC7C6)C(O)C4O)CC3)NC(=O)C(CC3CCCCC3)NC(=O)CNC(=O)C(CO)NC(=O)C(C(O)C3CNC(=N)N3C3OC(CO)C(O)C(O)C3O)NC2=O)N1 (stereo not shown) [Example 223]
reported-endpoint: MIC Enterococcus avium (GC 4558)
endpoint-result: 64
//
molecule: CC(c1ccc(Cl)cc1)C1NC(=O)CNC(=O)C(CO)NC(=O)C(C(O)C2CNC(=N)N2C2OC(CO)C(O)C(O)C2O)NC(=O)C(C(O)C2CNC(=N)N2)NC(=O)C(Cc2ccc(OC3OC(CO)C(OC4OC5COC(c6ccccc6)OC5C(O)C4O)C(O)C3O)cc2)NC1=O (stereo not shown) [Example 195]
reported-endpoint: MIC Enterococcus avium (GC 4558)
endpoint-result: 0.5
//
molecule: COc1ccc2cc(COCC3OC(OC4C(CO)OC(Oc5ccc(CC6NC(=O)C(C(C)c7ccccc7)NC(=O)CNC(=O)C(CO)NC(=O)C(CC7CNC(=N)N7C7OC(CO)C(O)C(O)C7O)NC(=O)C(CC7CNC(=N)N7)NC6=O)cc5)C(O)C4O)C(O)C(O)C3O)ccc2c1 (stereo not shown) [Example 245]
reported-endpoint: MIC Enterococcus avium (GC 4558)
endpoint-result: 16

* * *

# Tested on: Enterococcus sp.
# protocol-notes: In vitro antibacterial evaluation: minimum inhibitory concentration (MIC), broth dilution method
# Assay type: cell-based
# measurement-parameters: broth dilution, 5×10^5 CFU/mL, 18 hours at 35° C.

compound: COC1CCC2(C)C(CCC3C2CCC2(C)C(C(C)CCC4OCC5OC(OC6C(CO)OC(Oc7ccc(CC8NC(=O)C(C(C)c9ccccc9)NC(=O)CNC(=O)C(CO)NC(=O)C(C(O)C9CNC(=N)N9C9OC(CO)C(O)C(O)C9O)NC(=O)C(C(O)C9CNC(=N)N9)NC8=O)cc7)C(O)C6O)C(O)C(O)C5O4)CCC32)C1 (stereo not drawn) [Example 130]
inequality-symbol: =
MIC Enterococccus faecalis (ATCC 29212), µg/mL: 32

compound: CC(c1ccccc1)C1NC(=O)CNC(=O)C(CO)NC(=O)C(C(O)C2CNC(=N)N2C2OC(CO)C(O)C(O)C2O)NC(=O)C(C(O)C2CNC(=N)N2)NC(=O)C(Cc2ccc(OC3OC(CO)C(OC4OC(CO)C(O)C5OC(c6ccccc6)OC45)C(O)C3O)cc2)NC1=O (single isomer, unassigned) [Example 104a]
inequality-symbol: >
MIC Enterococccus faecalis (ATCC 29212), µg/mL: 64

compound: CCCC(CCC)C(=O)OCC1OC(OC2C(CO)OC(Oc3ccc(CC4NC(=O)C(C(C)c5ccccc5)NC(=O)CNC(=O)C(CO)NC(=O)C(C(O)C5CNC(=N)N5C5OC(CO)C(O)C(O)C5O)NC(=O)C(C(O)C5CNC(=N)N5)NC4=O)cc3)C(O)C2O)C(O)C(O)C1O (stereo not drawn) [Example 99c]
inequality-symbol: =
MIC Enterococccus faecalis (ATCC 29212), µg/mL: 4

compound: CCC(CC)C1OCC2OC(OC3C(CO)OC(Oc4ccc(CC5NC(=O)C(C(C)c6ccccc6)NC(=O)CNC(=O)C(CO)NC(=O)C(C(O)C6CNC(=N)N6C6OC(CO)C(O)C(O)C6O)NC(=O)C(C(O)C6CNC(=N)N6)NC5=O)cc4)C(O)C3O)C(O)C(O)C2O1 (stereo not drawn) [Example 116]
inequality-symbol: =
MIC Enterococccus faecalis (ATCC 29212), µg/mL: 2

compound: CCCCCC1OCC2OC(OC3C(CO)OC(Oc4ccc(CC5NC(=O)C(C(C)c6ccccc6)NC(=O)CNC(=O)C(CO)NC(=O)C(C(O)C6CNC(=N)N6C6OC(CO)C(O)C(O)C6O)NC(=O)C(C(O)C6CNC(=N)N6)NC5=O)cc4)C(O)C3O)C(O)C(O)C2O1 (stereo not drawn) [Example 108]
inequality-symbol: =
MIC Enterococccus faecalis (ATCC 29212), µg/mL: 2

* * *

# Tested on: Escherichia coli
# protocol-notes: In vitro antibacterial evaluation: minimum inhibitory concentration (MIC), broth dilution method
# Assay type: cell-based
# measurement-parameters: 5×10^5 CFU/mL, 18 hours at 35° C.
reported-endpoint: MIC Escherichia coli (GC 4559) (µg/mL)

compound: N=C1NCC(C(O)C2NC(=O)C(Cc3ccc(OC4OC(CO)C(OC5OC(CO)C(O)C6OC7(OC56)C5CC6CC(C5)CC7C6)C(O)C4O)cc3)NC(=O)C(CC3CCCCC3)NC(=O)CNC(=O)C(CO)NC(=O)C(C(O)C3CNC(=N)N3C3OC(CO)C(O)C(O)C3O)NC2=O)N1 (stereo not shown) [Example 106a]
endpoint-result: 32
--
compound: CC(c1ccccc1)C1NC(=O)CNC(=O)C(CO)NC(=O)C(C(O)C2CNC(=N)N2C2OC(CO)C(O)C(O)C2O)NC(=O)C(C(O)C2CNC(=N)N2)NC(=O)C(Cc2ccc(OC3OC(CO)C(OC4OC5COC(Cc6ccc(Cl)cc6)OC5C(O)C4O)C(O)C3O)cc2)NC1=O (stereo not shown) [Example 120]
endpoint-result: 16
--
compound: Cc1cccc(C2OCC3OC(OC4C(CO)OC(Oc5ccc(CC6NC(=O)C(C(C)c7ccccc7)NC(=O)CNC(=O)C(CO)NC(=O)C(C(O)C7CNC(=N)N7C7OC(CO)C(O)C(O)C7O)NC(=O)C(C(O)C7CNC(=N)N7)NC6=O)cc5)C(O)C4O)C(O)C(O)C3O2)c1 (stereo not shown) [Example 135]
endpoint-result: 32
--
compound: N=C1NCC(C(O)C2NC(=O)C(Cc3ccc(OC4OC(CO)C(OC5OC6COC7(OC6C6OC8(OC56)C5CC6CC(C5)CC8C6)C5CC6CC(C5)CC7C6)C(O)C4O)cc3)NC(=O)C(CC3CCCCC3)NC(=O)CNC(=O)C(CO)NC(=O)C(C(O)C3CNC(=N)N3C3OC(CO)C(O)C(O)C3O)NC2=O)N1 (stereo not shown) [Example 106b]
endpoint-result: 32
